Data credit: ChEMBL document CHEMBL2169855

procedure-details: Oral bioavailability in fed beagle dog at 5 mg/kg measured up to 24 hrs
Assay type: ADME, organism-based, Canis lupus familiaris
condition-label: in vivo
result-type: bioavailability (%)
Just the number please, in %, no unit attached.

Query :: Quick one: bioavailability of COC(=O)c1[nH]cc(C(=O)NCc2ccc(F)cc2)c(=O)c1O ?
Result :: 46

* * *

procedure-details: Total clearance in fed rat at 1 mg/kg, iv measured up to 24 hrs
Assay type: ADME, organism-based
Parameters: dose 1 mg/kg, route intravenous
condition-label: in vivo
result-type: clearance
# do not omit the unit; it follows the number

Query :: clearance for COC(=O)c1[nH]cc(C(=O)NCc2ccc(F)cc2)c(=O)c1O ?
Result :: 1.2 mL/min/kg

* * *

procedure-details: Terminal half life in fed rat at 1 mg/kg, iv measured up to 24 hrs
Assay type: ADME, organism-based
Parameters: dose 1 mg/kg, route intravenous
condition-label: in vivo, read-out: beta t1/2 (converted)
result-type: half-life (h)
Kindly answer with a numeric value in h, unit omitted.

Query :: Could you tell me which half-life is on file for COC(=O)c1[nH]cc(C(=O)NCc2ccc(F)cc2)c(=O)c1O ?
Result :: 4.7

* * *

procedure-details: Terminal half life in fed cynomolgus monkey at 1 mg/kg, iv measured up to 24 hrs
Assay type: ADME, organism-based, Macaca fascicularis
Design: dose 1 mg/kg, route intravenous
condition-label: in vivo, read-out: beta t1/2 (converted)
result-type: half-life (h)
// return numeric value only (unit: h, not printed)

Query :: Looking for the measured half-life of COC(=O)c1[nH]cc(C(=O)NCc2ccc(F)cc2)c(=O)c1O , can you help?
Result :: 5.3

* * *

procedure-details: AUC (0 to infinity) in fed rat at 5 mg/kg, po measured up to 24 hrs
Type: ADME, organism-based
Set-up: time infinity, dose 5 mg/kg, route oral
condition-label: plasma
result-type: AUC(0-inf) (ng·h/mL)
Enter your answer as a number in ng·h/mL; do not include the unit.

Query :: Dear colleague, I am looking for the recorded AUC(0-inf) of the following compound: COC(=O)c1[nH]cc(C(=O)NCc2ccc(F)cc2)c(=O)c1O
Result :: 41200

* * *

procedure-details: Cytotoxicity against human MT4 cells incubated for 4 days by MTT assay
Format: cell-based
Rule: measured CC50 at 96 h below 20 µM gets true; anything equal to or greater than 20 µM gets false.

Query :: Field: below-cutoff. Rule: recorded CC50 at 96 h strictly less than 20 µM. Subject: COCCNC(=O)c1[nH]cc(C(=O)NCc2ccc(F)cc2)c(=O)c1O
Result :: true

* * *

procedure-details: Volume of distribution at steady state in fed cynomolgus monkey at 1 mg/kg, iv measured up to 24 hrs
Assay type: ADME, organism-based, Macaca fascicularis
Set-up: dose 1 mg/kg, route intravenous
condition-label: in vivo, read-out: Vdss
result-type: Vd (L/kg)
Give a bare numeral; the unit L/kg is implied.

Query :: Could you share which Vd value was measured for COC(=O)c1[nH]cc(C(=O)NCc2ccc(F)cc2)c(=O)c1O ?
Result :: 0.3

* * *

procedure-details: Oral bioavailability in fed rat at 5 mg/kg measured up to 24 hrs
Assay type: ADME, organism-based
condition-label: in vivo
result-type: bioavailability (%)
Your answer is read as %, so omit the unit and give the number.

Query :: Consider the compound shown here: COC(=O)c1[nH]cc(C(=O)NCc2ccc(F)cc2)c(=O)c1O What is its recorded bioavailability?
Result :: 53
